- ASSAY_SUMMARY: self-splicing fitness, log relative to wild type (ln ratio); higher = more splicing; Tetrahymena group I intron in knt gene, E. coli kanamycin selection, DiMSum; sequences stand for … in CUCUCU…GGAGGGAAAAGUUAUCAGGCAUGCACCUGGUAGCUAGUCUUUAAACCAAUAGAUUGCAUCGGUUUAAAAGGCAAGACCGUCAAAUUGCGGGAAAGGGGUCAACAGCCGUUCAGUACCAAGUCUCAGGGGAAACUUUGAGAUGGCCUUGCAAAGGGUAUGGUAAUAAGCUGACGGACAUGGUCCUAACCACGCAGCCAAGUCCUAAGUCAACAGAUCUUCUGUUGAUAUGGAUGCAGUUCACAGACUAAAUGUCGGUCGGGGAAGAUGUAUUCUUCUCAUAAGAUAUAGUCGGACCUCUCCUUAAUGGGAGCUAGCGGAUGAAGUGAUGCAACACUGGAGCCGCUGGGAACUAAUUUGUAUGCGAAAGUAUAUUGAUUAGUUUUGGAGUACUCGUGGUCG;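 further: selection with 25 µg/mL kanamycin versus none on LB agar overnight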
- ASSAY_CONTEXT: 37 °C
Class Y: self-splicing fitness (ln) at least -0.1. Class N: self-splicing fitness (ln) below -0.1.

[
  {
    "BIOPOLYMER_SEQUENCE": "UAAGAGCAAUAUUACGAUAG",
    "CLASS": "N"
  },
  {
    "BIOPOLYMER_SEQUENCE": "CUAGAGCAAUAUUACGAUGA",
    "CLASS": "N"
  },
  {
    "BIOPOLYMER_SEQUENCE": "AUAUAGCAAUAUUACGGCCA",
    "CLASS": "N"
  }
]

Quick check: does `GGGUAGCAAUAUUACGGGCG` have self-splicing fitness (ln) greater than or equal to -0.1?
N

Quick check: does `AAUUAGCAAUAUUACGAAUA` have self-splicing fitness (ln) greater than or equal to -0.1?
Y

* * *

- ASSAY_SUMMARY: self-splicing fitness, log relative to wild type (ln ratio); higher = more splicing; Tetrahymena group I intron in knt gene, E. coli kanamycin selection, DiMSum; sequences stand for … in CUCUCU…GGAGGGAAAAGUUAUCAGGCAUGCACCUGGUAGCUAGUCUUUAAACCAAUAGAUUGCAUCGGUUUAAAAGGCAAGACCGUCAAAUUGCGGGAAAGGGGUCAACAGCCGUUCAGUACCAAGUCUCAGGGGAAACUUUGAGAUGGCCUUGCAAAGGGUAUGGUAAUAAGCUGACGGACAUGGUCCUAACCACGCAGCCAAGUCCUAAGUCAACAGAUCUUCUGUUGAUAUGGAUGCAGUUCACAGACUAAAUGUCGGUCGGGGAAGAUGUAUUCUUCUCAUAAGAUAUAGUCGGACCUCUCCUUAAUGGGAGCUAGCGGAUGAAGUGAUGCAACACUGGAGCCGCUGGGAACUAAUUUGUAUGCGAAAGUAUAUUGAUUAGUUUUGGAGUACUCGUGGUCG
- ASSAY_CONTEXT: 30 °C
Listed sequences paired with reported self-splicing fitness (ln)

Example sequences with recorded self-splicing fitness (ln):
[
  {
    "BIOPOLYMER_SEQUENCE": "AAACAGCAAUAUUACGUCCG",
    "ATTRIBUTE_MEASURED": "self-splicing fitness (ln)",
    "OBSERVED_MEASUREMENT": -1.89
  },
  {
    "BIOPOLYMER_SEQUENCE": "GCAUAGCAAUAUUACGGUGG",
    "ATTRIBUTE_MEASURED": "self-splicing fitness (ln)",
    "OBSERVED_MEASUREMENT": -2.55
  },
  {
    "BIOPOLYMER_SEQUENCE": "AUUGAGCAAUAUUACGACGU",
    "ATTRIBUTE_MEASURED": "self-splicing fitness (ln)",
    "OBSERVED_MEASUREMENT": -0.46
  },
  {
    "BIOPOLYMER_SEQUENCE": "GCUCAGCAAUAUUACGAAUA",
    "ATTRIBUTE_MEASURED": "self-splicing fitness (ln)",
    "OBSERVED_MEASUREMENT": -1.02
  },
  {
    "BIOPOLYMER_SEQUENCE": "CUGUAGCAAUAUUACGGAAG",
    "ATTRIBUTE_MEASURED": "self-splicing fitness (ln)",
    "OBSERVED_MEASUREMENT": -3.31
  }
]

State its self-splicing fitness (ln): `AAACAGCAAUAUUACGACAC`
-1.95

State its self-splicing fitness (ln): `GUCUAGCAAUAUUACGUGGA`
-2.12

State its self-splicing fitness (ln): `GUGCAGCAAUAUUACGCCCU`
-1.57

State its self-splicing fitness (ln): `GAACAGCAAUAUUACGAGAC`
-2.13

State its self-splicing fitness (ln): `GCAUAGCAAUAUUACGGGCG`
-1.84

State its self-splicing fitness (ln): `GGCAAGCAAUAUUACGCGCA`
0.145

State its self-splicing fitness (ln): `CCGCAGCAAUAUUACGGGCG`
-2.13

State its self-splicing fitness (ln): `UACUAGCAAUAUUACGACGC`
-2.01

State its self-splicing fitness (ln): `GUUAAGCAAUAUUACGGUCG`
-1.32

Origin of values: the supplement of paper PMC7877785
